Test system: JSC-1
Assay: WST-1 cytotoxicity assay, JSC-1 (KSHV+ PEL)
Assay type: cell-based
Settings: 72 h, read-out: CC50, JSC-1
Quantity kind: CC50 (nM)
One number for each entry, in nM.

Provide CC50 for all items below, preserving their order.
1. COC(=O)c1ccc([C@H](C)OC(=O)C[C@@H]2N=C(c3ccc(Cl)cc3)c3c(sc(C)c3C)-n3c(C)nnc32)cc1
2. Cc1sc2c(c1C)C(c1ccc(Cl)cc1)=N[C@@H](CC(=O)O[C@@H](C)c1ccc(C(=O)Nc3ccccc3N)cc1)c1nnc(C)n1-2
3. COC(=O)c1ccc([C@@H](C)OC(=O)C[C@@H]2N=C(c3ccc(Cl)cc3)c3c(sc(C)c3C)-n3c(C)nnc32)cc1

2320
110
9840

I would be grateful if you could share the reported CC50 for "Cc1sc2c(c1C)C(c1ccc(Cl)cc1)=N[C@@H](CC(=O)O[C@H](C)c1ccc(C(=O)Nc3ccccc3N)cc1)c1nnc(C)n1-2" .
300
